Data provenance: PubChem BioAssay (NCI)

# ASSAY_PROTOCOL: NCI Yeast Anticancer Drug Screen. Data for the cln2 rad14 strain (AID 165);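 further: 0% = growth equal to vehicle treated cultures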
# MEASUREMENT_SETUP: S. cerevisiae cln2 rad14 strain, at 50.0 µM
# Protocol: Growth inhibition of yeast strains with defined genetic alterations is measured as a screen for potential anti-cancer activity. Selected strains with alterations in DNA damage repair or cell cycle control were exposed to compounds and growth inhibition was measured relative to vehicle treated controls. The strain used in this assay is cln2 rad14
The panel holds about 79,000 compounds, 15% with a hit somewhere; the sample as a whole holds those more often. Calls of active or inactive are those of the source. No stated cut-off is given here; in the data, active means growth inhibition above about 70%; inactive means the rest.
Your reply should match one of these outcome classes. active, inactive

Check out these entries, answers already filled in.
CC(=O)OCC(OC(C)=O)C(OC1OC(COC(C)=O)C(OC(C)=O)C(OC(C)=O)C1OC(C)=O)C(OC(C)=O)C(C=O)OC(C)=O (stereo not given) ... inactive
Cc1nn(C(=O)c2ccccn2)c(-c2ccccc2)c1N=Nc1ccc(S(=O)(=O)Nc2ncccn2)cc1 ... inactive
CC(C)(C)Oc1cc(F)c(C(C)(C)C)cc1C(C)(C)C ... inactive
C1=C(N2CCOCC2)CCC(N2CCOCC2)=C1 ... inactive
Cc1ccc(NC(=O)C(=O)C(C#N)c2nc(-c3ccc(-c4ccccc4)cc3)cs2)c(C)c1 (stereo not given) ... inactive
CN(C)c1ccc(C2N(C)CCN2C)cc1 ... inactive

q: Per the assay record, what outcome was assigned to CCc1c(C)c(C)c(C)c(C)c1C(C)=O ?
a: inactive

q: Per the assay record, what outcome was assigned to COC(=O)c1c(C(=O)Nc2ccc(Cl)cc2)c(C)n(NC(N)=O)c1C ?
a: inactive

q: Per the assay record, what outcome was assigned to O=P(Nc1ccc(Cl)c(Cl)c1)(N1CCCCC1)N1CCCCC1 ?
a: inactive

q: Per the assay record, what outcome was assigned to COCCOCOCCCC#C[Si](C)(C)C ?
a: inactive

q: Per the assay record, what outcome was assigned to O=C1OC(c2ccccc2)(c2ccccc2)CC1c1ccccc1 (stereo not given) ?
a: inactive

q: Per the assay record, what outcome was assigned to CCOC(=O)NNC(=O)C1CSC(c2ccccc2)N1C(C)=O (stereo not given) ?
a: inactive

q: Per the assay record, what outcome was assigned to Cc1ccc(NC(=O)CCC(=O)C2Cc3ccccc3C2=O)cc1C (stereo not given) ?
a: inactive

q: Per the assay record, what outcome was assigned to CC(=O)OCC1OC(n2cnc(C(N)=S)c2N)C(OC(C)=O)C1OC(C)=O (stereo not given) ?
a: inactive

q: Per the assay record, what outcome was assigned to CC(C)(C)OC(=O)N(CCCN)CCCCN(CCCN)C(=O)OC(C)(C)C ?
a: inactive

* * *

# ASSAY_PROTOCOL: NCI Yeast Anticancer Drug Screen. Data for the mlh1 rad18 strain (AID 175)
# MEASUREMENT_SETUP: S. cerevisiae mlh1 rad18 strain growth inhibition; at 50.0 µM; hits give high values
About 79,000 compounds went through this panel and 15% of them were active in at least one assay; those are over-represented in the sample as a whole.
Provide the recorded growth inhibition for the entries that follow.
Numbers only, in %.

Worked examples, 3 molecules total:
O=C(N/C(=C\c1ccccc1)C1Nc2ccccc2C(=O)O1)c1ccccc1 (stereo not drawn) ... -24.7
CC(=O)OCC1OC(N2C(=O)C(=O)c3cc(C)ccc32)C(OC(C)=O)C(OC(C)=O)C1OC(C)=O (stereo not drawn) ... 33.4
CN=C(C#N)c1ccccc1 ... -15.8

Please go through the list and note growth inhibition for each molecule.
1. O=c1c2cc([N+](=O)[O-])ccc2[nH]n1Cc1ccccc1Cl
2. CCCN=C(NC(=O)c1ccc(Cl)cc1)SC

a:
1. -4.45
2. -46.4

* * *

# ASSAY_PROTOCOL: NCI Yeast Anticancer Drug Screen. Data for the bub3 strain (AID 167)
# MEASUREMENT_SETUP: S. cerevisiae bub3 mutant strain, at 50.0 µM, hits give high values
About 79,000 compounds went through this panel and 15% of them were active in at least one assay; those are over-represented in the sample as a whole.
Provide the recorded growth inhibition for the entries that follow.
Numbers only, in %.

COC1OC2COC(c3ccccc3)OC2C(OC(=O)c2ccc([N+](=O)[O-])cc2)C1OS(=O)(=O)c1ccc(C)cc1 (stereo unspecified) ... 0.7

Please go through the list and note growth inhibition for each compound.
1. CCOC(=O)C(C)N1CCCCCC1 (stereo unspecified)
2. CCOC(=O)COc1ccc(C)c2c1C(=O)CC2
3. O=C(O)c1cccc(Sc2ccccc2)c1

a:
1: -8.25; 2: -19.1; 3: -18.9

Please go through the list and note growth inhibition for each compound.
1. CCCCCCCC/C=C\CCCCCCCC(=O)NCCN(CC)CC
2. CC[C@]12C=CCN3CCC4(c5cc([C@@]6(C(=O)OC)CC7CN(CCc8c6[nH]c6ccccc86)C[C@@H]6CCC[C@H]76)c(OC)cc5N(C)C4[C@](O)(C(=O)OC)C1OC(C)=O)C32 (stereo partly specified)
3. O=c1[nH]c(Nc2ccc(F)c(Cl)c2)nc2nc[nH]c12
4. O=[N+]([O-])c1ccc(S(=O)(=O)N/N=C\c2cc([N+](=O)[O-])ccc2O)cc1
5. CCOC(=O)C(C#N)C1CCCC(C)CC1 (stereo unspecified)
6. CCN(CC)Cc1cc(Oc2ccc(O)c(CN(CC)CC)c2)ccc1O
7. OCCNc1ncnc2ccccc12

a:
1: 98.7; 2: -45; 3: 2.55; 4: 1.55; 5: 34.1; 6: 11.6; 7: 6.15

* * *

# ASSAY_PROTOCOL: NCI Yeast Anticancer Drug Screen. Data for the mec2-1 strain (AID 157)
# MEASUREMENT_SETUP: S. cerevisiae mec2-1 strain, at 50.0 µM, hits give high values
About 79,000 compounds went through this panel and 15% of them were active in at least one assay; those are over-represented in the sample as a whole.
PARAMETER: growth inhibition (%)
Numbers only, in %.

Worked examples, 6 molecules total:
CCC(=O)Nc1cccc2ccccc12 ... -12.7
Nc1ccc(N=Nc2ccc(OCCN(CCO)CCO)cc2)c(N)n1 ... -22.8
NC(=O)c1csc(CCCCCCc2nc(C(N)=O)cs2)n1 ... -15.5
COc1cc([N+](=O)[O-])c(OC)cc1Nc1ccccc1C(=O)O ... -12.8
CCC(=O)NCCc1ccccc1 ... 29.6
O=C(COc1ccccc1)OC1CCCCC1C1CCCCC1 (centres undefined) ... 13

Please go through the list and note growth inhibition for each molecule.
1. CCOc1ccc2nc(NC(=O)C(=O)C(C(=O)c3ccccc3-c3ccccc3)C3OC(=O)c4ccccc43)sc2c1 (centres undefined)
2. O=[N+]([O-])c1ccccc1S(=O)c1ccccc1 (centres undefined)
3. Cc1ccc(Cl)c(NC(=O)C(=O)C(C(=O)c2ccncc2)C2OC(=O)c3ccccc32)c1 (centres undefined)

a:
[23.9, -0.15, -26.1]

* * *

# ASSAY_PROTOCOL: NCI Yeast Anticancer Drug Screen. Data for the mlh1 rad18 strain (AID 175)
# MEASUREMENT_SETUP: S. cerevisiae mlh1 rad18 strain growth inhibition; at 50.0 µM; hits give high values
About 79,000 compounds went through this panel and 15% of them were active in at least one assay; those are over-represented in the sample as a whole.
Please mark yes if the recorded growth inhibition is equal to or greater than 20%, and no if it falls below.

CCOC(=O)C(=O)C(C(=O)c1ccccn1)c1nc2n(c1O)C(=N)N=N2 (centres undefined) ... no
CCC(CC)C(=O)O ... no
N#Cc1cc2c(cc1C#N)/C(=N\c1cccc(N)n1)N=C2Nc1cccc(N)n1 ... yes

q: API: above_or_equal(metric=growth inhibition, cutoff=20%) for item CC(OCc1ccccc1)C(NC(=O)C1CSSCC(NC(=O)C(Cc2ccccc2)NC(=O)OCc2ccccc2)C(=O)NC(Cc2ccccc2)C(=O)NC(Cc2cn(C=O)c3ccccc23)C(=O)NC(CCCCNC(=O)OCc2ccccc2)C(=O)NC(C(C)OCc2ccccc2)C(=O)N1)C(N)=O (centres undefined)
a: no

q: API: above_or_equal(metric=growth inhibition, cutoff=20%) for item CC(C)(C)c1cc(-c2cc(C(C)(C)C)[nH]n2)n[nH]1
a: no

q: API: above_or_equal(metric=growth inhibition, cutoff=20%) for item COP(=O)(OC)C1c2cc(Cl)ccc2-c2c(Cl)cc(Cl)cc21 (centres undefined)
a: yes

q: API: above_or_equal(metric=growth inhibition, cutoff=20%) for item CCC(=O)c1c(O)cc(O)cc1O
a: no

q: API: above_or_equal(metric=growth inhibition, cutoff=20%) for item CN(C)C(=S)/N=C(\N)N(C)C
a: no

q: API: above_or_equal(metric=growth inhibition, cutoff=20%) for item CCOC(=O)NC(=O)c1cn(CCCCCCOC(=O)NCCCCCCNC(=O)OCCCCCCn2cc(C(=O)NC(=O)OCC)c(=O)[nH]c2=O)c(=O)[nH]c1=O
a: yes
